Test Method Notes: Solubility testing of peptides at different pH
Format: physicochemical
Condition Label: 50 mM HCl buffer; 50 mM HCl pH 1.2; target concentration 1 mg/ml; 2 hours agitation; read-out: Solubility Buffer pH 1.2
Experimental: Prior to the solubility measurement of a synthesized peptide batch, its purity was determined through UPLC/MS (methods B-G). For solubility testing the target concentration was 1 mg pure compound/ml. […] The solubility was determined by the comparison of the UV peak area of 2 μL-injections of a buffered sample diluted 1:5 with a standard curve of a dimethyl sulfoxide reference sample of the diluted in dimethyl sulfoxide with known concentration. […]
Starred links: 1 amine or outer side, 2 acyl side, 3 side chain; linkers in the order of their positions; H or OH if unused. Positions of bridges follow the written chain, without caps; N, C: chain ends. Non-standard residues stand in square brackets, D forms with d. Residues, ends and D or L forms follow the SMILES beside them. *: point of attachment. X3 = CN(CCCCC(=O)N[C@@H](CS[*:2])C(=O)[*:1])[*:3]; Trp(7-Me) = Cc1cccc2c(C[C@H](N)C(=O)O)c[nH]c12; X1 = O=C(CCCCN[*:3])N[C@@H](CS[*:2])C(=O)[*:1]; αMeLys(Me2) = CN(C)CCCC[C@](C)(N)C(=O)O; 2Nal = N[C@@H](Cc1ccc2ccccc2c1)C(=O)O; d2Nal = N[C@H](Cc1ccc2ccccc2c1)C(=O)O; AEF = NCCOc1ccc(C[C@H](N)C(=O)O)cc1; 3Pal = N[C@@H](Cc1cccnc1)C(=O)O; αMeL = CC(C)C[C@](C)(N)C(=O)O; Suc = O=C(CCC(=O)[*:2])[*:1]; Thp = NC1(C(=O)O)CCOCC1; Me2NCH2CH2 = CN(C)CC*; Sar = CNCC(=O)O
Observed Property: solubility at 2 h

Lookup: // returns reported solubility at 2 h for input CC(=O)NCCCC[C@@H]1NC(=O)[C@H](Cc2c[nH]c3c(C)cccc23)NC(=O)[C@H]([C@@H](C)O)NC(=O)[C@H](CC(N)=O)NC(=O)[C@@H]2CSSC[C@H](NC1=O)C(=O)N[C@@H](Cc1ccc(OCCN(C)C)cc1)C(=O)N[C@@H](Cc1ccc3ccccc3c1)C(=O)N[C@@](C)(CC(C)C)C(=O)N[C@H](C(=O)N[C@@H](CC(N)=O)C(=O)N[C@@H](Cc1c[nH]cn1)C(N)=O)CCCCNC(=O)CCC(=O)N2 [compound 23] (CNT[Trp(7-Me)]K(Ac)CY(Me2NCH2CH2)[2Nal][αMeL]KNH-NH2; disulfide 1-6; linker N-10 via Suc)
Found: ≥ 970 µg/mL

Lookup: // returns reported solubility at 2 h for input CC(=O)N[C@H]1CCCCNC(=O)[C@@H]2CSSC[C@H](NC(=O)[C@H](CCC(N)=O)NC(=O)[C@H](Cc3c[nH]c4ccccc34)NC1=O)C(=O)N[C@@H](Cc1ccc(OCCN)cc1)C(=O)N[C@@H](Cc1ccc3ccccc3c1)C(=O)NC1(CCOCC1)C(=O)N[C@H](C(=O)N[C@@H](C)C(=O)NCC(N)=O)CCC(=O)N(C)CCCCC(=O)N2 [compound 17] (Ac-KWQC[AEF][2Nal][Thp]EAG-NH2; linker 1-4-8 via X3)
Found: ≥ 1030 µg/mL

Lookup: // returns reported solubility at 2 h for input CC(=O)NCCCC[C@@H]1NC(=O)[C@H](Cc2c[nH]c3ccccc23)NC(=O)[C@@H](NC(C)=O)CCCCNC(=O)[C@@H]2CSSC[C@H](NC1=O)C(=O)N[C@@H](Cc1ccc(OCCN(C)C)cc1)C(=O)N[C@H](Cc1ccc3ccccc3c1)C(=O)N[C@@](C)(CCCCN(C)C)C(=O)N[C@H](C(=O)N[C@@H](CC(N)=O)C(=O)N[C@@H](Cc1cccnc1)C(=O)N(C)CC(N)=O)CCC(=O)NCCCCC(=O)N2 [compound 59] (Ac-KWK(Ac)CY(Me2NCH2CH2)[d2Nal][αMeLys(Me2)]EN[3Pal][Sar]-NH2; linker 1-4-8 via X1)
Found: ≥ 1090 µg/mL
